In this section, each of the binders is paired with its reported % binding of the fluorescently labeled mAb (IgG pre-incubation = 100).
target: T1, human CD103 (integrin Alpha-E) / human integrin Beta-7 heterodimer on cells (human, UniProt P38570 19-1179; P26010 20-798)
T1 construct: the assay field tells which cells; also called hCD103/hBeta7; CHO.K1-hCD103/hBeta7
T1 sequence (P38570 19-1179 limits assumed, chain 1 of 2): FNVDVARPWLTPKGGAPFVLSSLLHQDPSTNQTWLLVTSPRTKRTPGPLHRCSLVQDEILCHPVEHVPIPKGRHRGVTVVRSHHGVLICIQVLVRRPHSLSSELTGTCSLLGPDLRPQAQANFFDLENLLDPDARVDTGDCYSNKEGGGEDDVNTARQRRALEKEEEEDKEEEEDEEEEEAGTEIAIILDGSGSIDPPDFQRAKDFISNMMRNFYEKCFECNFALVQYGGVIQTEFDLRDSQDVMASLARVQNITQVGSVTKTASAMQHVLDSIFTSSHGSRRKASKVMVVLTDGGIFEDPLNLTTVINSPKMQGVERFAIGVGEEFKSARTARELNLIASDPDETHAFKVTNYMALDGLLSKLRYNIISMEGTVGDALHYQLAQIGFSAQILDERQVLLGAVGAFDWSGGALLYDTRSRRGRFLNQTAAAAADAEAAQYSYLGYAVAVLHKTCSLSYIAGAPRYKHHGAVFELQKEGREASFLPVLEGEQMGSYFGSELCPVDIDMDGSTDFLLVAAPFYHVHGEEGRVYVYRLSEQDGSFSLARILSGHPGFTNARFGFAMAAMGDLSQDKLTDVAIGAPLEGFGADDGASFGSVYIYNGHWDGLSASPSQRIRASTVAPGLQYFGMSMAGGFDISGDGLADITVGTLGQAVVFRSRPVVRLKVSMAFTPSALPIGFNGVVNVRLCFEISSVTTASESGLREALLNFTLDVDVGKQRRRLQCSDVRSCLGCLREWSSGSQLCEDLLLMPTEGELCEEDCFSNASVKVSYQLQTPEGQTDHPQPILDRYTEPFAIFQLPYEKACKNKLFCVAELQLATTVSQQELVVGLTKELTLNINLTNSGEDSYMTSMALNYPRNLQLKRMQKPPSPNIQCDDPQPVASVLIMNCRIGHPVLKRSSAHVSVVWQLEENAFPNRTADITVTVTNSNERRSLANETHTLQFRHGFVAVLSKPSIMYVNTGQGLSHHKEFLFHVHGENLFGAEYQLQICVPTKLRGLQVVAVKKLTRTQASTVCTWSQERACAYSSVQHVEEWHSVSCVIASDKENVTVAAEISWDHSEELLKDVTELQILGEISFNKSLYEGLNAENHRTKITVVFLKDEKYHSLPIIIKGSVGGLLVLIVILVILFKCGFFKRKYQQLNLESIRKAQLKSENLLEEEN
T1 sequence (P26010 20-798 limits assumed, chain 2 of 2): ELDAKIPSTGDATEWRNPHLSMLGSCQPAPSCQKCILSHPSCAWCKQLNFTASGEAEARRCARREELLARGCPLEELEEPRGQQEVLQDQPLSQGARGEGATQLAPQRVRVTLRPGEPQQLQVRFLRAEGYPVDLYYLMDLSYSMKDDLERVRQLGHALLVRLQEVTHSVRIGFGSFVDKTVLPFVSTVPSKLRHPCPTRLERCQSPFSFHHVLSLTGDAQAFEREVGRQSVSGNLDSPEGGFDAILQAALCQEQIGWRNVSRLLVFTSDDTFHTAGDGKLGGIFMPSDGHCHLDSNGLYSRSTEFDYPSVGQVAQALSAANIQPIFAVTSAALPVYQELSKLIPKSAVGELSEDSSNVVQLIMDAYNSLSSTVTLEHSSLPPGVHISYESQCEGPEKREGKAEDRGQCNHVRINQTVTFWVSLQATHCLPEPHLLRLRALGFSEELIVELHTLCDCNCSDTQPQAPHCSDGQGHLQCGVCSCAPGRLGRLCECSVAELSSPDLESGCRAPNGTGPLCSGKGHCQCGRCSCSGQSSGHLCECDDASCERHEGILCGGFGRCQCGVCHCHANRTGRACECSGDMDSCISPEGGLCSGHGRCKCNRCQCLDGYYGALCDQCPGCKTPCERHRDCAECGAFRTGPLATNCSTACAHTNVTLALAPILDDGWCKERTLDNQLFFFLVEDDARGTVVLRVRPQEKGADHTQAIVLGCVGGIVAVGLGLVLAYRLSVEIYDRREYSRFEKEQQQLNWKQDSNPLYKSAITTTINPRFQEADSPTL
measurement-protocol: flow cytometry competition on CD103+CD8+ T cells; pre-incubation with unlabeled 02A; table n=1
property: % binding of the fluorescently labeled mAb (IgG pre-incubation = 100) (%)

{"binder": "hCD103.06A (antibody, mouse IgG1, V domains shown, also called clone 06A; hCD103.06 mAb) VH: QVQLQQPGSELVRPGASVKLSCKASGYTFTSYWMHWVKQRHGQGLEWIGNIYPGSGSTNYDEKFKSKGTLTVDTSSSTAYMHLSSLTSEDSAVYYCTRGVYDNPYYFDYWGQGTTLTVSS VL: DIQMTQSSSNLSVSLGGRVTITCKASDHINNWLAWYQQKPGNAPRVLISGATSLETGVPSRFSGSGSGKDYTLSITSLQTEDVATYYCQQYWSIPLTFGAGTKLELK", "assay-result": 104}
{"binder": "hCD103.07A (antibody, mouse IgG1, V domains shown, also called clone 07A) VH: EVQLQESGPSLVKPSQTLSLTCSVTGDSITSGYWNWIRKFPGNKLEYMGYITYSGSTYYNPSLKSRISITRDTSKNQYYLQLNSVTTEDTATYYCARNYYGSSSMDYWGQGTSVTVSS VL: DIVMTQSQKFMSTSVADRVSVTCKASQNVGSDVAWYQQKPGQSPKSLIYSASYRYSGVPDRFTGSGSGTDFTLTISNVQSEDLAEYFCQQYNSYPSTFGGGTKLEIK", "assay-result": 0.5}
{"binder": "hCD103.01A (antibody, V domains shown, Also tested labelled with AF647, conjugated with Df and labelled with 89Zr; these are written under this molecule; also called clone 01A; hCD103.01 mAb) VH: EVQLQESGPSLVKPSQTLSLTCSVTGDSITSGYWNWIRKFPGNKLEYMGYITYSGSTYYNPSLKSRISITRDTSKNQYYLQLNSVTTEDTATYYCTRHYYGSDAMDYWGQGTSVTVSS VL: DIVMTQSHKFMSTSVGDRVSITCKASQDVSIAVAWYQQRPGQSPKLLIYSASYRYTGVPDRFTGSGSGTDFTFTISSVQAEDLAVYYCQQHYSTPWTFGGGTKLEIK", "assay-result": 2.3}
{"binder": "hCD103.05A (antibody, mouse IgG1, V domains shown, Also tested labelled with AF647, conjugated with Df and labelled with 89Zr; these are written under this molecule; also called clone 05A; hCD103.05 mAb) VH: EVQLQQSGPELEKPGASAKISCKASGYSFTGYNMNWVKQSNGKSLEWIGNIDPYYGGTSYNQKFKGKATLTVDKSSSTAYMQLKSLTSEDSAVYYCARSFYGYDAGSPYNYAMDYWGQGTPVTVSP VL: DIVMTQSHKFMSTSVGDRVSITCKASQDVGTFVAWYQQKPGQSPKLLIYWASTRHTGVPDRFTGSGSGTDFTLTISNVQSEDLADYFCHQYSSYPYTFGGGTQLEIK", "assay-result": 4.3}

Data origin: patent US20230183354A1
